Attribute: EC50
- Target Entity: T1, post-fusion F protein from RSV strain 18537 B (human respiratory syncytial virus …, UniProt P13843 26-109; P13843 147-513)
- T1 construct: also called RSV 18537 B; RSV 18537 B post-fusion F
- T1 sequence (P13843 26-109, chain 1 of 2): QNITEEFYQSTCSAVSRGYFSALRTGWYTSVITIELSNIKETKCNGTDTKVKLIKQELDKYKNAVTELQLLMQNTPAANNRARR
- T1 sequence (P13843 147-513, chain 2 of 2): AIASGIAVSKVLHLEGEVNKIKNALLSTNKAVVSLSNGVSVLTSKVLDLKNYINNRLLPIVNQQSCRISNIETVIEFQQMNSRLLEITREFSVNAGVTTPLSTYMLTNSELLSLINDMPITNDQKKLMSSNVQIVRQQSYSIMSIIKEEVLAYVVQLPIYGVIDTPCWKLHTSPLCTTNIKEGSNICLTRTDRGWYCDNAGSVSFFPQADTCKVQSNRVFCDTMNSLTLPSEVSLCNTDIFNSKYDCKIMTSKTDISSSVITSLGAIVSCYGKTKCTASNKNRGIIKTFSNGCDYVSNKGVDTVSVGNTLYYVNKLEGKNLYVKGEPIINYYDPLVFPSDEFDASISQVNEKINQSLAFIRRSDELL
- Assay: ELISA on coated antigen

| Binder | EC50 (µg/mL) |
| --- | --- |
| mAb 12I1 (antibody, V domains shown, Non-neutralizing, antigenic site VII) VH: QVQLVQSGGGVVQPGQSLRLSCAASGFSFSDYPIHWVRQAPGKGLEWVAGISYYGSNKFYADSVRGRFTISRDTSKNTFNLQMNSLKSEDTAVYYCARDGNPPRFLEYFDYWGQGTLVTVSS VL: QPVVTQPRSVSGSPGQSVTISCTGSSSDVGGYNFVSWYRHHPGKAPKLLIYHVTKRPSGVPDRFSGSKSGNTASLTISGLQAEDEADYYCCSYAGSYTYVLFGGGTKLTVL | 0.033 |
| mAb 14C16 (antibody, V domains shown) VH: QVQLGESGPALVKPTQTLTLTCTFSGFSLSTSEMCVSWIRQPPGKALEWLALIDWDGDKFFSTSLQSRLTISKSPSNNQVVLTMTNMDPVDSGTYFCARSTVRRSSGYYYYVLDVWGQGTLVTVSS VL: QIVMTQSPSSLSASVGDRVTISCRASQSIGTYVNWYQHKPGKAPKVLISGASNLHSGVPSRFSGSGSGTDFTLTISSLQPEDFATYYCQQSYSPLTFGGGTTVEMK | 0.02 |
| mAb 14N4 (antibody, V domains shown) VH: QVQLVESGGGLIQPGGSLRLSCAVSGFTVSSKYMTWVRQAPGKGLEWVSVIYGGGSTYYADSVVGRFTISRDNSKNTLYLQMNSLRAEDTAVYYCASRLGVRATTGDLDYWGQGTLVTVSS VL: QIVMTQSPSTLSASVGDRVTITCRASQSISSWLAWYQQKPGKAPKLLIYDASSLESGVPSRFSGSGSGTEFTLTISSLQPDDFATYYCQQYNTYSWWTFGQGTKVEIK | 0.057 |
| mAb 9J5 (antibody, V domains shown) VH: QVQLVQSGAEVKKPGSSVTVSCKASGGSFTNYAFSWVRQAPGQGLEWMGGIIPLLNMPNYAQKFRGRVTISADQSTTTAYMELSRLTSEDTAIYFCARGGQVGDFIVLRHFDSWGQGTLVTVSS VL: TLSCRASESVSNYLAWYQQKPGQTPRLLIYGASTRATGIPARFSGSGSGSEFTLTISSLQSEDFAVYYCQQYNDWPRFSFGQGTKLEIK | 0.04 |
| mAb 4B6 (antibody, V domains shown) VH: QVQLVQSGGGLAQPGRSLRLSCRASGFTFGDFNMNWFRQAPGKGLEWVGFIRRKAFGGATEYAASVKGRLTISRDDSKSIAYLQMNSLKTEDTAVYYCTRERGYVGSGGPFFDYWGQGTLVTVSS VL: QAVVTQPPSVSGAPGQRVTISCTGSSSNIGAGYDVHWYQQLPGTAPKLLIYGDSNRPSGVPDRFSGSSSGTSASLAITGLQAEDEADYYCQSYDNSLSGSVFGTGTKVTVL | 0.024 |
